Test system: K-562 leukemia
TEST_SUMMARY: NCI-60 one-dose screen, 48 h (100 = growth as untreated, 0 = no growth, -100 = all killed)
MEASUREMENT_SETUP: 10 µM
The panel holds about 83,000 compounds, 20% with a hit somewhere; the sample as a whole holds those more often.
Answer -1 if growth is under 30%, and 1 if it is 30% or more.

Below are worked cases with known answers.
O=C1C(=O)c2ccccc2-c2ccccc21    -1
COC12C(COC(N)=O)C3=C(C(=O)C(C)=C(N)C3=O)N1CC1C2N1C (centres undefined)    1
CC(C)c1cc([N+](=O)[O-])cc([N+](=O)[O-])c1O    1
CN(CCCl)c1ccc(/C=C/C2=[N+](C)c3ccccc3C2(C)C)cc1    -1
O=[N+]([O-])c1cc[n+]([O-])c2ccccc12    -1
NNc1ccccc1    -1

State whether the measured growth reaches 30%, counting equality as reaching it, for Cc1cc(C)c(C[N+](C)(C)C)c(C)c1C
-1

Please check the record CC/C(=C/c1ccc(OC)cc1OC)[N+](=O)[O-] and state if its growth is at or above 30%.
-1

Confirm if growth reported for the compound O=S(=O)(F)c1ccc(Cl)cc1 is 30% or above.
1
